# Lookup of reported EC50 keyed by entry
Target: RXRα (Homo sapiens)
Construct: expressed in transfected cells
Sequence (P19793 whole entry): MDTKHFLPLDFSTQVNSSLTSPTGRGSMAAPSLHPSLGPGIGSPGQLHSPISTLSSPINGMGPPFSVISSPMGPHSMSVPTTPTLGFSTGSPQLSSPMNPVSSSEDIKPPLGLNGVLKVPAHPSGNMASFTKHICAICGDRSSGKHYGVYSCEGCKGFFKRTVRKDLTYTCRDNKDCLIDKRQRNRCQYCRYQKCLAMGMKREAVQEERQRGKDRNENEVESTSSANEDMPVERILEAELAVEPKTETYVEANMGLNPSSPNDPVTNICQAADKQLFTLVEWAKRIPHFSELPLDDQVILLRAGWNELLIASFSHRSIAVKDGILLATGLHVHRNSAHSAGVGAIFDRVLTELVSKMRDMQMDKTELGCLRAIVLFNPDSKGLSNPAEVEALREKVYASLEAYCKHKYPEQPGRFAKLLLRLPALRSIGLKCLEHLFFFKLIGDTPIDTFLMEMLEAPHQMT
Test: holoreceptor transactivation assay, RXRα
Assay type: cell-based
Conditions: read-out: EC50 (nM) RXR α
// return numeric value only (unit: nM, not printed)

Query: Query (compound): CCc1oc2ccc([C@@]3(C)C[C@H]3/C=C/C(C)=C/C(=O)O)cc2c1C(C)C ; field requested: EC50
Response: 0.7

---
Query: Query (compound): CCCCCc1oc2ccc([C@@]3(C)C[C@H]3/C=C/C(C)=C/C(=O)O)cc2c1C(C)(C)C ; field requested: EC50
Response: 2.2

Query: Query (compound): CCc1oc2ccc([C@@]3(C)C[C@H]3/C=C/C(C)=C/C(=O)O)cc2c1CC ; field requested: EC50
Response: 6

Query: Query (compound): CCc1oc2ccc([C@@]3(C)C[C@H]3/C=C/C(C)=C/C(=O)O)cc2c1C(C)(C)C ; field requested: EC50
Response: 1.5

* * *

Target: RXRβ (Homo sapiens)
Construct: expressed in transfected cells
Sequence (P28702 1-533): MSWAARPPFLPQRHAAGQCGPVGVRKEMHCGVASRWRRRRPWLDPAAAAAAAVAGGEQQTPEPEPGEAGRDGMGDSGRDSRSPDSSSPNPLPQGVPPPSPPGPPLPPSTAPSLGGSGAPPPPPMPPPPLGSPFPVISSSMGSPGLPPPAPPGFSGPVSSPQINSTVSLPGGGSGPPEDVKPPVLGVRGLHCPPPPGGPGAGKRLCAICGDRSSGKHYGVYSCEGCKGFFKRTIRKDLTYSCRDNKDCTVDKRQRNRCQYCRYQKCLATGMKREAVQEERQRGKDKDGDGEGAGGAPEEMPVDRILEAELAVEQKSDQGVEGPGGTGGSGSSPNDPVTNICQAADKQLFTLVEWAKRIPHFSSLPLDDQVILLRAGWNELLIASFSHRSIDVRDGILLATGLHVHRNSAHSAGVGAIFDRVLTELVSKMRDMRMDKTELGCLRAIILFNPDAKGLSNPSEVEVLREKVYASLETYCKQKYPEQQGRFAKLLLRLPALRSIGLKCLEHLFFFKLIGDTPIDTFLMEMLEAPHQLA
Assay: holoreceptor transactivation assay, RXRβ
Assay type: cell-based
Settings: read-out: EC50 (nM) RXR β
MEASUREMENT TYPE: EC50

Query: Query (molecule): CCc1oc2ccc([C@@]3(C)C[C@H]3/C=C/C(C)=C/C(=O)O)cc2c1C(C)C ; field requested: EC50
Response: 4.3 nM

---
Query: Query (molecule): CCc1oc2ccc([C@@]3(C)C[C@H]3/C=C/C(C)=C/C(=O)O)cc2c1C(C)(C)C ; field requested: EC50
Response: 17 nM

Query: Query (molecule): CCCCCc1oc2ccc([C@@]3(C)C[C@H]3/C=C/C(C)=C/C(=O)O)cc2c1C(C)(C)C ; field requested: EC50
Response: 9.3 nM

Query: Query (molecule): CCc1oc2ccc([C@@]3(C)C[C@H]3/C=C/C(C)=C/C(=O)O)cc2c1CC ; field requested: EC50
Response: 44 nM

* * *

Target: RXRγ (Homo sapiens, UniProt P48443)
Construct: expressed in transfected cells
Test: holoreceptor transactivation assay, RXRγ
Type: cell-based
Conditions: read-out: EC50 (nM) RXR γ
# Lookup of reported EC50 keyed by entry
// return numeric value only (unit: nM, not printed)

Consider the following illustrative entries.
Query: Please state recorded EC50 (tested on RXRγ (Homo sapiens, UniProt P48443)) of CCc1oc2ccc([C@@]3(C)C[C@H]3/C=C/C(C)=C/C(=O)O)cc2c1C(C)C
Response: 0.8

Query: Please state recorded EC50 (tested on RXRγ (Homo sapiens, UniProt P48443)) of CCCCCc1oc2ccc([C@@]3(C)C[C@H]3/C=C/C(C)=C/C(=O)O)cc2c1C(C)(C)C
Response: 2.6

Query: Please state recorded EC50 (tested on RXRγ (Homo sapiens, UniProt P48443)) of CCc1oc2ccc([C@@]3(C)C[C@H]3/C=C/C(C)=C/C(=O)O)cc2c1CC
Response: 12

Note: attention shifts to another entry.
Query: Please state recorded EC50 (tested on RXRγ (Homo sapiens, UniProt P48443)) of CCc1oc2ccc([C@@]3(C)C[C@H]3/C=C/C(C)=C/C(=O)O)cc2c1C(C)(C)C
Response: 2.9

* * *

Biological target: RXRγ (Homo sapiens)
Construct: expressed in transfected cells
Sequence (P48443 1-463): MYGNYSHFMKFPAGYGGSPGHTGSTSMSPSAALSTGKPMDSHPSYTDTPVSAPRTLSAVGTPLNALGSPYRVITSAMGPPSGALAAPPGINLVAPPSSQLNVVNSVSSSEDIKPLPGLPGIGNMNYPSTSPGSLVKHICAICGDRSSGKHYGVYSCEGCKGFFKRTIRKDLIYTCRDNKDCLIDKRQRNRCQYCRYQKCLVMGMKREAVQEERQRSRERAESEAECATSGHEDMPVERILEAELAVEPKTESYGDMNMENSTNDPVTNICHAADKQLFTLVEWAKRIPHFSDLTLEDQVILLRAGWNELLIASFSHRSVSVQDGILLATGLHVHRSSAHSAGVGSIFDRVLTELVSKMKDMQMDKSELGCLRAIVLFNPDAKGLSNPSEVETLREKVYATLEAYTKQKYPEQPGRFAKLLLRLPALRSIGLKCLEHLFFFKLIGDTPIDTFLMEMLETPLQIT
Test: ligand binding assay, RXRγ
Conditions: read-out: Kd (nM) RXR γ
MEASUREMENT TYPE: Kd (nM)
// return numeric value only (unit: nM, not printed)

Consider the following illustrative entries.
Query: Query (compound): CCc1oc2ccc([C@@]3(C)C[C@H]3/C=C/C(C)=C/C(=O)O)cc2c1C(C)(C)C ; field requested: Kd
Response: 40

Query: Query (compound): CCc1oc2ccc([C@@]3(C)C[C@H]3/C=C/C(C)=C/C(=O)O)cc2c1C(C)C ; field requested: Kd
Response: 48

Note: attention shifts to another entry.
Query: Query (compound): CCc1oc2ccc([C@@]3(C)C[C@H]3/C=C/C(C)=C/C(=O)O)cc2c1CC ; field requested: Kd
Response: 256

* * *

Target: RXRβ (Homo sapiens, UniProt P28702)
Construct: expressed in transfected cells
Assay: ligand binding assay, RXRβ
Details: read-out: Kd (nM) RXR β
# Lookup of reported Kd keyed by entry
// return numeric value only (unit: nM, not printed)

Consider the following illustrative entries.
Query: Please state recorded Kd (tested on RXRβ (Homo sapiens, UniProt P28702)) of CCCCCc1oc2ccc([C@@]3(C)C[C@H]3/C=C/C(C)=C/C(=O)O)cc2c1C(C)(C)C
Response: 98

Query: Please state recorded Kd (tested on RXRβ (Homo sapiens, UniProt P28702)) of CCc1oc2ccc([C@@]3(C)C[C@H]3/C=C/C(C)=C/C(=O)O)cc2c1C(C)C
Response: 17

Query: Please state recorded Kd (tested on RXRβ (Homo sapiens, UniProt P28702)) of CCc1oc2ccc([C@@]3(C)C[C@H]3/C=C/C(C)=C/C(=O)O)cc2c1CC
Response: 288

---
Query: Please state recorded Kd (tested on RXRβ (Homo sapiens, UniProt P28702)) of CCc1oc2ccc([C@@]3(C)C[C@H]3/C=C/C(C)=C/C(=O)O)cc2c1C(C)(C)C
Response: 20

* * *

Molecular target: RXRβ (Homo sapiens)
Construct: expressed in transfected cells
Assay: holoreceptor transactivation assay, RXRβ
Format: cell-based
MEASUREMENT TYPE: % Eff RXR β (%)
// return numeric value only (unit: %, not printed)

Query: Query (compound): CCc1oc2ccc([C@@]3(C)C[C@H]3/C=C/C(C)=C/C(=O)O)cc2c1C(C)(C)C ; field requested: % Eff RXR β
Response: 150

Query: Query (compound): CCc1oc2ccc([C@@]3(C)C[C@H]3/C=C/C(C)=C/C(=O)O)cc2c1C(C)C ; field requested: % Eff RXR β
Response: 116

Query: Query (compound): CCc1oc2ccc([C@@]3(C)C[C@H]3/C=C/C(C)=C/C(=O)O)cc2c1CC ; field requested: % Eff RXR β
Response: 90

Note: attention shifts to another entry.
Query: Query (compound): CCCCCc1oc2ccc([C@@]3(C)C[C@H]3/C=C/C(C)=C/C(=O)O)cc2c1C(C)(C)C ; field requested: % Eff RXR β
Response: 96

* * *

Molecular target: RXRγ (Homo sapiens, UniProt P48443)
Construct: expressed in transfected cells
Assay: holoreceptor transactivation assay, RXRγ
Format: cell-based
# Lookup of reported % Eff RXR γ keyed by entry
// return numeric value only (unit: %, not printed)

Query: Query (molecule): CCc1oc2ccc([C@@]3(C)C[C@H]3/C=C/C(C)=C/C(=O)O)cc2c1CC [Compound 20] ; field requested: % Eff RXR γ
Response: 90

Query: Query (molecule): CCc1oc2ccc([C@@]3(C)C[C@H]3/C=C/C(C)=C/C(=O)O)cc2c1C(C)C [Compound 28] ; field requested: % Eff RXR γ
Response: 110

Query: Query (molecule): CCc1oc2ccc([C@@]3(C)C[C@H]3/C=C/C(C)=C/C(=O)O)cc2c1C(C)(C)C [Compound 12] ; field requested: % Eff RXR γ
Response: 131

---
Query: Query (molecule): CCCCCc1oc2ccc([C@@]3(C)C[C@H]3/C=C/C(C)=C/C(=O)O)cc2c1C(C)(C)C [Compound 38] ; field requested: % Eff RXR γ
Response: 101

Source: patent US6388105B1
